Catalogue of compounds with associated growth
Test system: IGROV1 ovarian
Assay info: NCI-60 one-dose screen, 48 h (100 = growth as untreated, 0 = no growth, -100 = all killed)
Condition context: 10 µM unless noted
This is part of a sample that, as a whole, favours compounds with a hit. Of some 83,000 tested, about 20% had one in any assay.

# Compound, growth [%]
data = [
    ("COc1ccc(OC)c(C2OC(c3ccc4ccccc4c3O)=NN2C(C)=O)c1 (stereo not given)", 75.8),
    ("CCOC(=O)c1c(/N=C2\\SC(=O)/C(=C\\C(=O)OC)N2NC)sc2c1CCN(C(=O)OCC)C2", 102),
    ("COc1ccc(-c2cnnn2-c2nonc2-n2cccc2)cc1OC", 62.4),
    ("Cc1c(C(=O)/C=C/c2csc3ccccc23)[n+](=O)c2ccccc2n1[O-]", 16.6),
    ("OB(O)c1cccc(-c2nc3ccc4[nH]ncc4c3c3c2CCCC3)c1F", 41.1),
    ("CC(C)CSc1nc(NN)c(C#N)c(-c2ccccc2)n1", 103),
    ("COc1ccc2c(c1)OC1=C(C(=O)OC1)C2c1cc(OC)c2c(c1)OCO2 (stereo not given)", 21.1),
    ("CCCCOc1ccc(/C=C2/SC(N3CCCC3)=NC2=O)cc1", 95.1),
    ("CC(=O)Nc1nc(N)nc(NC(C)=O)c1N=O", 131),
    ("COc1cc(/C=C/C(=O)/C=C/c2cc(OC)c3c(c2)OCO3)cc2c1OCO2", 90.3),
]
